// PBM binding z-score lookup, one value per entry
- Tested on: PPARg:RXRa 90nM:30nM, anti-RXR (NR concentration 90 nM, RXRa partner concentration 30 nM)
- test.summary: PBM binding z-score (relative to random genomic background probes); higher = stronger binding; sequences stand for … in GC…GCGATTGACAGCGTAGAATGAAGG

Example sequences with recorded PBM binding z-score:
[
  {
    "seq.string": "ATCGAAAGGTCGAGGTGAGGATAGAGAAAGGGAA",
    "result": 2.81
  },
  {
    "seq.string": "AACACAGGGTCATCGTAGGCCAGAGTACGCACAG",
    "result": 4.21
  },
  {
    "seq.string": "GCTAGTTGGTCAGTAAAACGTCACACACCGGTCG",
    "result": -0.286
  }
]

Query :: Item CCTATTAGTTGACCATAAGGGTAACCGAAGCTCG : provide PBM binding z-score
Result :: 0.358

Query :: Item TGAAAGAGGTTAAAGATCAGGGAACGTGGCGTCG : provide PBM binding z-score
Result :: 5.15

Query :: Item AGAACGAGGGCAATGCGTTGATAGCACGGGTGGC : provide PBM binding z-score
Result :: 0.215

Query :: Item CTCGAAAGGTCGGTGGAGGTGAGTATACGGATAA : provide PBM binding z-score
Result :: 0.88

Query :: Item AGAATGACGTTATTAAGATCAGGGAATTGCGGTC : provide PBM binding z-score
Result :: 0.151

Query :: Item GTACCAAGGTGTATAGGTCGTTGATGAGTAGGCG : provide PBM binding z-score
Result :: 0.71

Query :: Item AATACAGGGTCACTATGCCAGAGTAGGTACGAAT : provide PBM binding z-score
Result :: 3.73

Query :: Item CTACCAAGGAGAACAAGGTCGTTGATTACTATTC : provide PBM binding z-score
Result :: -0.114

Query :: Item TCATATAGGTAAATGCTAGGTGAAAGCCCGATCT : provide PBM binding z-score
Result :: 3.05
